Settings: in acetone, 308.15 K
measuredQuantity: solubility (mole fraction)
Note: the reply should be a number with no unit written.

Problem: I am curious: what solubility (mole fraction) value has been reported for CCCCOc1ccc(C(=O)CCN2CCCCC2)cc1.Cl ?
Result: 0.0389

* * *

Conditions: in DMF, 293.15 K
measuredQuantity: solubility (mole fraction)
Note: the reply should be a number with no unit written.

Problem: I am curious: what solubility (mole fraction) value has been reported for CCCCOc1ccc(C(=O)CCN2CCCCC2)cc1.Cl ?
Result: 0.0291

* * *

Conditions: in THF, 288.15 K
measuredQuantity: solubility (mole fraction)
Note: the reply should be a number with no unit written.

Problem: I am curious: what solubility (mole fraction) value has been reported for CCCCOc1ccc(C(=O)CCN2CCCCC2)cc1.Cl ?
Result: 0.00108

* * *

Conditions: in acetone, 293.15 K
measuredQuantity: solubility (mole fraction)
Note: the reply should be a number with no unit written.

Problem: I am curious: what solubility (mole fraction) value has been reported for CCCCOc1ccc(C(=O)CCN2CCCCC2)cc1.Cl ?
Result: 0.0218

* * *

Conditions: in DMF, 288.15 K
measuredQuantity: solubility (mole fraction)
Note: the reply should be a number with no unit written.

Problem: I am curious: what solubility (mole fraction) value has been reported for CCCCOc1ccc(C(=O)CCN2CCCCC2)cc1.Cl ?
Result: 0.0256

* * *

Conditions: in THF, 298.15 K
measuredQuantity: solubility (mole fraction)
Note: the reply should be a number with no unit written.

Problem: I am curious: what solubility (mole fraction) value has been reported for CCCCOc1ccc(C(=O)CCN2CCCCC2)cc1.Cl ?
Result: 0.00133

* * *

Conditions: in methanol, 303.15 K
measuredQuantity: solubility (mole fraction)
Note: the reply should be a number with no unit written.

Problem: I am curious: what solubility (mole fraction) value has been reported for CCCCOc1ccc(C(=O)CCN2CCCCC2)cc1.Cl ?
Result: 0.147

Hello, the source for this data is BigSolDB 2.1, in case you need it.
